Documented IC50 across a set of molecules
- TEST_METHOD_NOTES: In vitro anti-plasmodial activity against Plasmodium falciparum dihydrofolate reductase […]/C59R/S108N/I164L (V1/S) mutant
PROPERTY_NAME: IC50 (µM)

- MOLECULE: "NC1=NC(c2cccc(Oc3ccc(Cl)cc3)c2)N(c2cccc(Cl)c2)C(N)=N1 (configuration not stated)"
  UNITS_LABEL: "µM"
  REPORTED_RELATION: "="
  NUMERIC_VALUE: 3.2
- MOLECULE: "CCCC1(C)N=C(N)N=C(N)N1c1cccc(Cl)c1 (configuration not stated)"
  UNITS_LABEL: "µM"
  REPORTED_RELATION: "="
  NUMERIC_VALUE: 1.1
- MOLECULE: "CCCCCCc1nc(N)nc(N)c1-c1ccccc1"
  UNITS_LABEL: "µM"
  REPORTED_RELATION: "="
  NUMERIC_VALUE: 6.4
- MOLECULE: "Nc1nc(N)c(-c2cccc(Cl)c2)c(CCCOC(=O)c2ccccc2)n1"
  UNITS_LABEL: "µM"
  REPORTED_RELATION: "="
  NUMERIC_VALUE: 7.5
- MOLECULE: "Nc1nc(N)c(-c2cccc(Cl)c2)c(CCCOC(=O)OCc2ccccc2)n1"
  UNITS_LABEL: "µM"
  REPORTED_RELATION: "="
  NUMERIC_VALUE: 5.9
- MOLECULE: "Nc1nc(N)c(-c2cccc(Cl)c2)c(CCOCCCOc2ccccc2)n1"
  UNITS_LABEL: "µM"
  REPORTED_RELATION: "="
  NUMERIC_VALUE: 4.6
- MOLECULE: "CCCCCCCC1N=C(N)N=C(N)N1c1cccc(Cl)c1 (configuration not stated)"
  UNITS_LABEL: "µM"
  REPORTED_RELATION: "="
  NUMERIC_VALUE: 2.5
- MOLECULE: "Nc1nc(N)c(-c2cccc(Cl)c2)c(CCCc2ccccc2)n1"
  UNITS_LABEL: "µM"
  REPORTED_RELATION: "="
  NUMERIC_VALUE: 5.7
- MOLECULE: "NC1=NC(c2cccc(Oc3cccc(C(F)(F)F)c3)c2)N(c2cccc(Cl)c2)C(N)=N1 (configuration not stated)"
  UNITS_LABEL: "µM"
  REPORTED_RELATION: "="
  NUMERIC_VALUE: 3.2
- MOLECULE: "CCCOc1ccc(C2N=C(N)N=C(N)N2c2cccc(Cl)c2)cc1 (configuration not stated)"
  UNITS_LABEL: "µM"
  REPORTED_RELATION: "="
  NUMERIC_VALUE: 2.9
- MOLECULE: "NC1=NC(c2ccccc2)N(c2cccc(Cl)c2)C(N)=N1 (configuration not stated)"
  UNITS_LABEL: "µM"
  REPORTED_RELATION: "="
  NUMERIC_VALUE: 0.8
- MOLECULE: "COc1ccc(CCCc2nc(N)nc(N)c2-c2cccc(Cl)c2)cc1"
  UNITS_LABEL: "µM"
  REPORTED_RELATION: "="
  NUMERIC_VALUE: 4.7
- MOLECULE: "CC1(C)N=C(N)N=C(N)N1c1ccc(Cl)cc1"
  UNITS_LABEL: "µM"
  REPORTED_RELATION: ">"
  NUMERIC_VALUE: 100
- MOLECULE: "CC(=O)OCCCc1nc(N)nc(N)c1-c1cccc(Cl)c1"
  UNITS_LABEL: "µM"
  REPORTED_RELATION: "="
  NUMERIC_VALUE: 5.3
- MOLECULE: "NC1=NC(c2cccc(OCCCOc3cc(Cl)c(Cl)cc3Cl)c2)N(c2cccc(Cl)c2)C(N)=N1 (configuration not stated)"
  UNITS_LABEL: "µM"
  REPORTED_RELATION: "="
  NUMERIC_VALUE: 8.6
- MOLECULE: "CCCCCCC1(C)N=C(N)N=C(N)N1c1cccc(Cl)c1 (configuration not stated)"
  UNITS_LABEL: "µM"
  REPORTED_RELATION: "="
  NUMERIC_VALUE: 3.2
- MOLECULE: "NC1=NC(c2cccc(Oc3cc(Cl)cc(Cl)c3)c2)N(c2cccc(Cl)c2)C(N)=N1 (configuration not stated)"
  UNITS_LABEL: "µM"
  REPORTED_RELATION: "="
  NUMERIC_VALUE: 3.9

Origin of values: BindingDB's records for doi:10.1021/jm030165t
